Values compiled from paper PMC6792352.

- method: in vitro
- assay context: rat, gh3-tre-luc cells, AC50 (uM) modified / 1000
Counter-ions that a name gives are not always drawn.
Recorded CC50 at 24 h for the following compounds

Worked cases, answers included:
# compound, CC50 at 24 h
rows = [
    ("Cc1ccc(C(C)C)cc1", "> 90 µM"),
    ("CCCCCCC(C)(C)S", "> 90 µM"),
    ("O=NN(CCCl)C(=O)NCCCl", "> 50 µM"),
    ("CCCC[P+](C)(CCCC)CCCC [Tributylmethylphosphonium methyl sulfate]", "> 90 µM"),
    ("CCCC[N+](=O)[O-]", "> 90 µM"),
]

(Q) # get_value(readout='CC50 at 24 h', item= `CCCN(CCC)c1c([N+](=O)[O-])cc(C(F)(F)F)cc1[N+](=O)[O-]` )
(A) > 90 µM

(Q) # get_value(readout='CC50 at 24 h', item= `CN1CCN(C(=O)O[C@H]2c3nccnc3C(=O)N2c2ccc(Cl)cn2)CC1` )
(A) > 50 µM

(Q) # get_value(readout='CC50 at 24 h', item= `CC(=O)C(C)C` )
(A) > 100 µM

(Q) # get_value(readout='CC50 at 24 h', item= `Nc1c(Cl)cc(Cl)cc1Cl` )
(A) > 90 µM

(Q) # get_value(readout='CC50 at 24 h', item= Cc1cc(O)ccc1O [Methylhydroquinone] )
(A) 14.8 µM
